Each entry below carries its reported normalized growth.
- Test Protocol: chemical genetic growth profiling, strain panel (AID 1159580);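 further: tested at 20 µM; growth read once vehicle control cultures reached saturation at 30 °C; 1 = growth at the plate median or of vehicle wells; lower values mean less growth of the strain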
- Conditions Used: S. cerevisiae deletion strains, growth OD, locus YLR357W, strain rsc2, stronger effect = lower value
Hit rate of the full screen: of about 5,500 compounds, about 2,000 (36%) were called active. Inconclusive results (about 18%) are left out. This is one part of the list.

INSERT INTO measurements (molecule, recorded_result) VALUES
  ('CC(C)[C@@H]1CC[C@@H](C)CC1=O', '0.998 (inactive)'),
  ('NC(=NCCCCCCN=C(N)N=C(N)Nc1ccc(Cl)cc1)N=C(N)Nc1ccc(Cl)cc1', '0.116 (active)'),
  ('CC[C@H]1OC(=O)[C@H](C)[C@@H](O[C@H]2C[C@@](C)(OC)[C@@H](O)[C@H](C)O2)[C@H](C)[C@@H](O[C@@H]2O[C@H](C)C[C@H](N(C)C)[C@H]2O)[C@](C)(O)C[C@@H](C)/C(=N/OCOCCOC)[C@H](C)[C@@H](O)[C@]1(C)O', '1.05 (inactive)'),
  ('C=CC[C@@H]1/C=C(\C)C[C@H](C)C[C@H](OC)[C@H]2O[C@@](O)(C(=O)C(=O)N3CCCC[C@H]3C(=O)O[C@H](/C(C)=C/[C@@H]3CC[C@@H](O)[C@H](OC)C3)[C@H](C)[C@@H](O)CC1=O)[C@H](C)C[C@@H]2OC', '0.949 (inactive)'),
  ('C[C@H]1C(=O)CCC2[C@]3(C)CC[C@@]4(C)C5CC(C)(C)CC[C@]5(C)CC[C@]4(C)C3CC[C@@]21C (stereo partly specified)', '0.977 (inactive)');

Please turn your attention to the following entry.
Q. Return reported normalized growth. Input molecule: CO/N=C(/C(=O)NC1C(=O)N2C(C(=O)OCOC(=O)C(C)(C)C)=C(/C=C\c3scnc3C)CSC12)c1csc(N)n1 (stereo unspecified)
A. 0.942 (inactive)
